So I've got a bunch of compounds here, and I need their IC50 values.
Target: menin/MLL (terbium chelate-labeled menin, FITC-MBM1 peptide) (Homo sapiens, UniProt O00255, T541A)
Construct: Menin (a.a 1-610-6xhis tag, 2.3 mg/mL in 20 mM Hepes)
Sequence (O00255 with tags, fused parts or gaps T541A): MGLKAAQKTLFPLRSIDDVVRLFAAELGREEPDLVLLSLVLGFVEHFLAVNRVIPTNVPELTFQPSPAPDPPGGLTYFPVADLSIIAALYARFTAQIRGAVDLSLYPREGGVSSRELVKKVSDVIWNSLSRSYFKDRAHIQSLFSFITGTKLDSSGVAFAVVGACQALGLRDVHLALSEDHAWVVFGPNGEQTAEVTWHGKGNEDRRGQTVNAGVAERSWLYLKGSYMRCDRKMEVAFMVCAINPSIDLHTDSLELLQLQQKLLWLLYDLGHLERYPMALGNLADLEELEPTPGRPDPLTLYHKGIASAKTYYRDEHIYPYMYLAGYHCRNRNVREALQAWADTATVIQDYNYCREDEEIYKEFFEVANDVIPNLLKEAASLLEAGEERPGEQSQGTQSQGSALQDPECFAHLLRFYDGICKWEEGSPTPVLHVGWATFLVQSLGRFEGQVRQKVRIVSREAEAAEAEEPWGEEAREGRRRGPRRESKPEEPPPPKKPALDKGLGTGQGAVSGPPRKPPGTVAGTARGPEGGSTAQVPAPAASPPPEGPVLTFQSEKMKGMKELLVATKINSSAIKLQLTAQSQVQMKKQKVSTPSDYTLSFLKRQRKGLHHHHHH
Assay: Menin/MLL homogenous time-resolved fluorescence (HTRF) assay
Conditions: 30 min incubation
Give bare numbers, in nM.

Consider the worked cases shown below.
INSERT INTO results (compound, measured_value) VALUES
  ('Cc1cncc2c1c(C[C@@H]1CCN(CC3CCN(C(=O)C(C)C)CC3)C1)cn2-c1ccc(F)cc1C(=O)N(CCO)C(C)C', 0.152),
  ('Cc1cncc2c1c(C[C@@H]1CCN(CC3CCOCC3)C1)cn2-c1ccc(F)cc1C(=O)N1CCC(O)C1C (stereo in doubt)', 0.223),
  ('CNC(=O)[C@H]1CC[C@@H](CN2CC[C@@H](Cc3cn(-c4ccc(F)cc4C(=O)N(C)C(C)C)c4cncc(C)c34)C2)CC1', 0.097),
  ('CON(C)C(=O)N1CCC(CN2CCC(Cc3cn(-c4ccc(F)cc4C(=O)N(C)C(C)C)c4cncc(C)c34)CC2)CC1', 0.069),
  ('Cc1cncc2c1c(C[C@@H]1CCN(CC3CCN(C(=O)C(C)(C)O)CC3)C1)cn2-c1ccc(F)cc1C(=O)N1CCC2CC21 (stereo partly drawn)', 0.037),
  ('CC(=O)N1C[C@@H]2CN([C@H]3C[C@H](C(C(C)C)N4CC(Cc5cn(-c6ccc(F)cc6C(=O)N(C)C(C)C)c6cncc(Cl)c56)C4)C3)C[C@H]2C1 (single isomer, unassigned) [Compound 40b]', 0.182);

Look at each compound and report its IC50.
1. CC(=O)N1CC2CCC(N3CC(Cc4cn(-c5ccc(F)cc5C(=O)N(C)C(C)C)c5cncc(C)c45)C3)C2C1 (stereo not drawn)
2. Cc1cncc2c1c(C[C@@H]1CCN(CC3CCNC(=O)CC3)C1)cn2-c1ccc(F)cc1C(=O)N(C)C(C)C (mixture of isomers)
3. COCC(=O)N1CCC(C(C)N2CCC(Cc3cn(-c4ccc(F)cc4C(=O)N(C)C(C)C)c4cncc(C)c34)C2)CC1 (single isomer, unassigned) [Compound 117a]

-- reply
0.468
0.061
0.088
